# Test method notes: GTN half-life and remaining dose
# Measurement parameters: human, in vivo, other: intra-arterial; after 10 min; read-out: share of the dose bioavailable
Readout kind: bioavailability at 10 min (%)
Give bare numbers, in %.

Report measured bioavailability at 10 min; entry is O=[N+]([O-])OCC(CO[N+](=O)[O-])O[N+](=O)[O-] [GTN, glyceryl trinitrate]
3

----------
# Tested on: resistance arteries
# Test method notes: Wire myography: relaxation to dilator agonists after preconstriction with U46619 (Example 2)
# Assay type: cell-based, human
# Measurement parameters: Homo sapiens, MVA patients; median
Readout kind: pIC50
Give bare numbers, as −log10 of the molar value.

Report measured pIC50; entry is CC(=O)OCC[N+](C)(C)C
7.10

----------
# System: resistance arteries
# Test method notes: Wire myography: relaxation to dilator agonists after preconstriction with U46619 (Example 2)
# Type: cell-based, human
# Measurement parameters: Homo sapiens, control subjects; median
Readout kind: pIC50
Answers are plain numbers, as −log10 of the molar value.

Report measured pIC50; entry is CC(=O)OCC[N+](C)(C)C
7.30

----------
# Test system: resistance arteries
# Test method notes: Wire myography: relaxation to dilator agonists after preconstriction with U46619 (Example 2)
# Assay type: cell-based, human
# Measurement parameters: Homo sapiens, VSA patients; median
Readout kind: pIC50
Numbers only, as −log10 of the molar value.

Report measured pIC50; entry is CC(=O)OCC[N+](C)(C)C [ACh, Acetylcholine]
7.10
